src = BigSolDB 2.1

conditions: in ethanol, 303.2 K
Measured solubility (mole fraction) values are reported for all entries that follow.

{"Molecular String": "Cc1ccc(S(=O)(=O)[N-]Cl)cc1.[Na+]", "solubility (mole fraction)": 0.034}
{"Molecular String": "O=S(=O)([N-]Cl)c1ccccc1.[Na+]", "solubility (mole fraction)": 0.0364}

====

settings: in sec-butanol, 303.2 K

{"Molecular String": "Cc1ccc(S(=O)(=O)[N-]Cl)cc1.[Na+]", "solubility (mole fraction)": 0.00595}
{"Molecular String": "O=S(=O)([N-]Cl)c1ccccc1.[Na+]", "solubility (mole fraction)": 0.00585}

====

details: in ethanol, 318 K

{"Molecular String": "O=S(=O)([N-]Cl)c1ccccc1.[Na+]", "solubility (mole fraction)": 0.0561}
{"Molecular String": "Cc1ccc(S(=O)(=O)[N-]Cl)cc1.[Na+]", "solubility (mole fraction)": 0.0499}
